target: Bromodomain-containing protein 4 (Homo sapiens); experiment: Binding affinity to recombinant human N-terminal hexaHis-tagged BRD4 expressed in Escherichia coli BL21 (DE3) cells by ITC analysis
Please respond with reported pKd for every item in the list.
The read-out pKd is expressed as -log10 of concentration in moles per litre.

Kindly note the recorded pKd for "CCOc1cc(C(=O)N2CCC(N3CCN(C)CC3)CC2)ccc1Nc1ncc2c(n1)N(C1CCCC1)c1ccccc1C(=O)N2C" , which is 6.67

Kindly note the recorded pKd for "CCOc1cc(N2CCC(O)CC2)ccc1Nc1ncc2c(n1)N(C)c1ccccc1C(=O)N2C" , which is 6.13

Kindly note the recorded pKd for CC[C@@H]1C(=O)N(C)c2cnc(Nc3ccc(C(=O)N[C@H]4CC[C@H](N5CCN(CC6CC6)CC5)CC4)cc3OC)nc2N1C(C)C [VOLASERTIB] , which is 6.50

Kindly note the recorded pKd for "Cc1cnc(Nc2ccc(C(=O)NC3CCN(C)CC3)c(F)c2)nc1Nc1ccc(Cl)c(NS(=O)(=O)C(C)(C)C)c1" , which is 7.27

###

Please respond with reported ΔTm for every item in the list.
molecular target: Bromodomain testis-specific protein (Homo sapiens)
Output spec: scalar in °C, unitless text.

Kindly note the recorded ΔTm for "CCOc1cc(C(=O)N2CCC(N3CCN(C)CC3)CC2)ccc1Nc1ncc2c(n1)N(C1CCCC1)c1ccccc1C(=O)N2C" , which is 2.3

Kindly note the recorded ΔTm for CC[C@@H]1C(=O)N(C)c2cnc(Nc3ccc(C(=O)N[C@H]4CC[C@H](N5CCN(CC6CC6)CC5)CC4)cc3OC)nc2N1C(C)C [VOLASERTIB] , which is 5

Kindly note the recorded ΔTm for "COc1cc(C(=O)N2CCC(N3CCN(C)CC3)CC2)ccc1Nc1ncc2c(n1)N(C)c1ccccc1C(=O)N2C" , which is 3.8

Kindly note the recorded ΔTm for "Cc1cnc(Nc2ccc(C(=O)NC3CCN(C)CC3)c(F)c2)nc1Nc1ccc(Cl)c(NS(=O)(=O)C(C)(C)C)c1" , which is 11.9

Kindly note the recorded ΔTm for "CCOc1cc(N2CCC(O)CC2)ccc1Nc1ncc2c(n1)N(C)c1ccccc1C(=O)N2C" , which is 2.9

###

target: Serine/threonine-protein kinase PLK1 (Homo sapiens); conditions: MM1.S, dose 30-100 nM, time 6.0 hrs
The source made the active and inactive calls. The rule behind the calls is not given here.
Pick one: active, inactive

Problem: What outcome does the record of this test show for "CC[C@@H]1C(=O)N(C)c2cnc(Nc3ccc(C(=O)N[C@H]4CC[C@H](N5CCN(CC6CC6)CC5)CC4)cc3OC)nc2N1C(C)C" ?
Solution: active

Problem: What outcome does the record of this test show for "Cc1sc2c(c1C)C(c1ccc(Cl)cc1)=N[C@@H](CC(=O)OC(C)(C)C)c1nnc(C)n1-2" ?
Solution: inactive

Problem: What outcome does the record of this test show for "C[C@@H](Oc1cc(-n2cnc3ccc(CN4CCN(C)CC4)cc32)sc1C(N)=O)c1ccccc1C(F)(F)F" ?
Solution: active

Problem: What outcome does the record of this test show for "COc1cc(C(=O)N2CCC(N3CCN(C)CC3)CC2)ccc1Nc1ncc2c(n1)N(C)c1ccccc1C(=O)N2C" ?
Solution: inactive

###

Please respond with reported Kd for every item in the list.
target: Bromodomain testis-specific protein (Homo sapiens); assay: Binding affinity to recombinant human N-terminal hexaHis-tagged BRDT expressed in Escherichia coli BL21 (DE3) cells by qPCR assay
Output spec: scalar in nM, unitless text.

Form: item "CCOc1cc(N2CCC(O)CC2)ccc1Nc1ncc2c(n1)N(C)c1ccccc1C(=O)N2C" ; test system Bromodomain testis-specific protein (Homo sapiens); Kd: 675

Form: item "CC[C@@H]1C(=O)N(C)c2cnc(Nc3ccc(C(=O)N[C@H]4CC[C@H](N5CCN(CC6CC6)CC5)CC4)cc3OC)nc2N1C(C)C" ; test system Bromodomain testis-specific protein (Homo sapiens); Kd: 113

Form: item "CCOc1cc(C(=O)N2CCC(N3CCN(C)CC3)CC2)ccc1Nc1ncc2c(n1)N(C1CCCC1)c1ccccc1C(=O)N2C" ; test system Bromodomain testis-specific protein (Homo sapiens); Kd: 500

###

target: Bromodomain testis-specific protein (Homo sapiens, UniProt Q58F21); assay: Binding affinity to recombinant human N-terminal hexaHis-tagged BRDT expressed in Escherichia coli BL21 (DE3) cells by MST assay
measured-endpoint: Kd (µM)
Output spec: scalar in µM, unitless text.

Kindly note the recorded Kd for CC[C@@H]1C(=O)N(C)c2cnc(Nc3ccc(C(=O)N[C@H]4CC[C@H](N5CCN(CC6CC6)CC5)CC4)cc3OC)nc2N1C(C)C [VOLASERTIB] , which is 1.03

Kindly note the recorded Kd for "CCOc1cc(N2CCC(O)CC2)ccc1Nc1ncc2c(n1)N(C)c1ccccc1C(=O)N2C" , which is 3.5

Kindly note the recorded Kd for "CCOc1cc(C(=O)N2CCC(N3CCN(C)CC3)CC2)ccc1Nc1ncc2c(n1)N(C1CCCC1)c1ccccc1C(=O)N2C" , which is 1.6

###

Please respond with reported pIC50 for every item in the list.
system: MM1.S; assay: Inhibition of cell growth in human MM1.S cells incubated for 72 hrs by CellTiter-blue reagent based assay; assay type: functional
The read-out pIC50 is expressed as -log10 of concentration in moles per litre.

Form: item "COc1cc(C(=O)N2CCC(N3CCN(C)CC3)CC2)ccc1Nc1ncc2c(n1)N(C)c1ccccc1C(=O)N2C" ; test system MM1.S; pIC50: 6.28

Form: item "Cc1cnc(Nc2ccc(C(=O)NC3CCN(C)CC3)c(F)c2)nc1Nc1ccc(Cl)c(NS(=O)(=O)C(C)(C)C)c1" ; test system MM1.S; pIC50: 7.59

Form: item "CCOc1cc(C(=O)N2CCC(N3CCN(C)CC3)CC2)ccc1Nc1ncc2c(n1)N(C1CCCC1)c1ccccc1C(=O)N2C" ; test system MM1.S; pIC50: 6.55

Form: item "CC[C@@H]1C(=O)N(C)c2cnc(Nc3ccc(C(=O)N[C@H]4CC[C@H](N5CCN(CC6CC6)CC5)CC4)cc3OC)nc2N1C(C)C" ; test system MM1.S; pIC50: 8.35

Form: item "Cc1sc2c(c1C)C(c1ccc(Cl)cc1)=N[C@@H](CC(=O)OC(C)(C)C)c1nnc(C)n1-2" ; test system MM1.S; pIC50: 7.48

###

Please respond with reported Kd for every item in the list.
biological target: Bromodomain-containing protein 4 (Homo sapiens); test: Binding affinity to recombinant human N-terminal hexaHis-tagged BRD4 expressed in Escherichia coli BL21 (DE3) cells by qPCR assay
Output spec: scalar in nM, unitless text.

Form: item "CCOc1cc(N2CCC(O)CC2)ccc1Nc1ncc2c(n1)N(C)c1ccccc1C(=O)N2C" ; test system Bromodomain-containing protein 4 (Homo sapiens); Kd: 205

Form: item "CCOc1cc(C(=O)N2CCC(N3CCN(C)CC3)CC2)ccc1Nc1ncc2c(n1)N(C1CCCC1)c1ccccc1C(=O)N2C" ; test system Bromodomain-containing protein 4 (Homo sapiens); Kd: 69

Form: item "CC[C@@H]1C(=O)N(C)c2cnc(Nc3ccc(C(=O)N[C@H]4CC[C@H](N5CCN(CC6CC6)CC5)CC4)cc3OC)nc2N1C(C)C" ; test system Bromodomain-containing protein 4 (Homo sapiens); Kd: 77

Form: item "Cc1cnc(Nc2ccc(C(=O)NC3CCN(C)CC3)c(F)c2)nc1Nc1ccc(Cl)c(NS(=O)(=O)C(C)(C)C)c1" ; test system Bromodomain-containing protein 4 (Homo sapiens); Kd: 12

###

Please respond with reported Kd for every item in the list.
molecular target: Bromodomain-containing protein 4 (Homo sapiens, UniProt O60885); assay: Binding affinity to recombinant human N-terminal hexaHis-tagged BRD4 expressed in Escherichia coli BL21 (DE3) cells by MST assay
Output spec: scalar in µM, unitless text.

Kindly note the recorded Kd for "CCOc1cc(C(=O)N2CCC(N3CCN(C)CC3)CC2)ccc1Nc1ncc2c(n1)N(C1CCCC1)c1ccccc1C(=O)N2C" , which is 0.205

Kindly note the recorded Kd for "CC[C@@H]1C(=O)N(C)c2cnc(Nc3ccc(C(=O)N[C@H]4CC[C@H](N5CCN(CC6CC6)CC5)CC4)cc3OC)nc2N1C(C)C" , which is 0.169

Kindly note the recorded Kd for "CCOc1cc(N2CCC(O)CC2)ccc1Nc1ncc2c(n1)N(C)c1ccccc1C(=O)N2C" , which is 0.8

###

target: Bromodomain testis-specific protein (Homo sapiens); experiment: Binding affinity to recombinant human N-terminal hexaHis-tagged BRDT expressed in Escherichia coli BL21 (DE3) cells by ITC analysis
measured-endpoint: pKd
The read-out pKd is expressed as -log10 of concentration in moles per litre.

Kindly note the recorded pKd for "CCOc1cc(C(=O)N2CCC(N3CCN(C)CC3)CC2)ccc1Nc1ncc2c(n1)N(C1CCCC1)c1ccccc1C(=O)N2C" , which is 5.68

Kindly note the recorded pKd for "CC[C@@H]1C(=O)N(C)c2cnc(Nc3ccc(C(=O)N[C@H]4CC[C@H](N5CCN(CC6CC6)CC5)CC4)cc3OC)nc2N1C(C)C" , which is 5.77

Kindly note the recorded pKd for "Cc1cnc(Nc2ccc(C(=O)NC3CCN(C)CC3)c(F)c2)nc1Nc1ccc(Cl)c(NS(=O)(=O)C(C)(C)C)c1" , which is 7.23

Kindly note the recorded pKd for "CCOc1cc(N2CCC(O)CC2)ccc1Nc1ncc2c(n1)N(C)c1ccccc1C(=O)N2C" , which is 5.38
